Molecular target: Human fibrinogen receptor (αIIbβ3) (Homo sapiens, UniProt P05106+P08514)
Construct: Human fibrinogen receptor (αIIbβ3) was purified from outdated platelets; from tissue; host or cells: outdated human platelets
Sequence (P08514 32-887 limits assumed): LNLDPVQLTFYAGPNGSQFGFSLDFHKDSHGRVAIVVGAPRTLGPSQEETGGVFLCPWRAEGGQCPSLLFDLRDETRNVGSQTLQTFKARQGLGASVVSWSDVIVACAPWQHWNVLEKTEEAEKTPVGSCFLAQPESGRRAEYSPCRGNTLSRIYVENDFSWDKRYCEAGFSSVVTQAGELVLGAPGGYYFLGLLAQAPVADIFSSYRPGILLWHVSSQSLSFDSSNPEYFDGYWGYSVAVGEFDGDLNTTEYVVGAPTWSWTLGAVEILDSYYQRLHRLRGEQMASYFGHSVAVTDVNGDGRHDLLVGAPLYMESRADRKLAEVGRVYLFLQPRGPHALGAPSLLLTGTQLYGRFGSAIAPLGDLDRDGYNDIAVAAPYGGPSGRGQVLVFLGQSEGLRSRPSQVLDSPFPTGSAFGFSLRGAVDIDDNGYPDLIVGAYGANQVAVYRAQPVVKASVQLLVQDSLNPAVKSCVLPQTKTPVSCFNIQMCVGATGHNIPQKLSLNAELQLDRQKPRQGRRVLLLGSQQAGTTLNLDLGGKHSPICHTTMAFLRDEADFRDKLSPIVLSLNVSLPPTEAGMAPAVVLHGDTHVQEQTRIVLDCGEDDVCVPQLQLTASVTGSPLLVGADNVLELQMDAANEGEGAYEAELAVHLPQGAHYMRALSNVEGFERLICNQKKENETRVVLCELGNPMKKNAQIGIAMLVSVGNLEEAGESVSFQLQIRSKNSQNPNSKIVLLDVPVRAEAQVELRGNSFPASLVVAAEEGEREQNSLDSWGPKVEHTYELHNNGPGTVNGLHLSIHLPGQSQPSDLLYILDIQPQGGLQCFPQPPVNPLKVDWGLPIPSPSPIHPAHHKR
Sequence (P08514 891-1039 limits assumed): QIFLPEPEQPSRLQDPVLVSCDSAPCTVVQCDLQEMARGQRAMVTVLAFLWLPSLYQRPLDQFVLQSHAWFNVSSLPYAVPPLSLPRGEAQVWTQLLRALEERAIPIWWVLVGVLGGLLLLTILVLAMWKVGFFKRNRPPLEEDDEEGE
Sequence (P05106 27-788): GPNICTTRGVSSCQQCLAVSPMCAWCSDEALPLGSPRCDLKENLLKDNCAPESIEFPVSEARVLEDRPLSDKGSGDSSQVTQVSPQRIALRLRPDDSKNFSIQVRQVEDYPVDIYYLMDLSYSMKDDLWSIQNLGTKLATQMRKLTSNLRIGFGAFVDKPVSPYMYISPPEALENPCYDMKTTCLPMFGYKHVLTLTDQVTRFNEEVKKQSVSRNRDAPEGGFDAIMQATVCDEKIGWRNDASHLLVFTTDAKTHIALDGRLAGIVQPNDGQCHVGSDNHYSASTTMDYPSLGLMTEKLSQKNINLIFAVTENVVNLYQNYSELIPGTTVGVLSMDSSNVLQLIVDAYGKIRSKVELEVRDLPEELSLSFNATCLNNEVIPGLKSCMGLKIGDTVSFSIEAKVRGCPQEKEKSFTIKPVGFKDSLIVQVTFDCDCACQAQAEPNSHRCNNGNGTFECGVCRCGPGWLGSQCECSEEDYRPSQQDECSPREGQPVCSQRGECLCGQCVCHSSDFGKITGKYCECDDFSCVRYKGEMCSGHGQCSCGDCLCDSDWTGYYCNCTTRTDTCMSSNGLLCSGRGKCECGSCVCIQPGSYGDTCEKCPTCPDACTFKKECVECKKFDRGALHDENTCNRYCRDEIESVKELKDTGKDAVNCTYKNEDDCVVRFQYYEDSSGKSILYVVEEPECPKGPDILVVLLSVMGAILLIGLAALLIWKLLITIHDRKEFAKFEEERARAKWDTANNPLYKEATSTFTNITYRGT
Experiment: Purified IIb/IIIa receptor assay (solid phase receptor assay, competition with biotinylated vitronectin)
Type: binding
Conditions: read-out: IIb/IIIa IC50
Where a name gives a salt, the structure may show the parent alone.
MEASUREMENT KIND: IC50 (µM)
State the answer as a number, implicitly in µM.

Worked examples follow.
>  <COMPOUND>
N=C(N)Nc1cccc(C(=O)NCC(=O)NC(CC(=O)O)c2cc(Br)ccc2O)c1 (racemic) [Example 228, trifluoroacetate salt, monohydrate]

>  <TGT>
Human fibrinogen receptor (αIIbβ3) (Homo sapiens, UniProt P05106+P08514)

>  <OUTPUT UNIT>
µM

>  <VAL>
0.583

$$$$
>  <COMPOUND>
N=C(N)Nc1cccc(C(=O)NCC(=O)NC(CC(=O)O)c2cc3ccccc3o2)c1 (stereo not shown) [Example 259, trifluoroacetate salt]

>  <TGT>
Human fibrinogen receptor (αIIbβ3) (Homo sapiens, UniProt P05106+P08514)

>  <OUTPUT UNIT>
µM

>  <VAL>
0.0867

$$$$
>  <COMPOUND>
O=C(O)CC(NC(=O)CNC(=O)c1cccc(NC2=NCCCCC2)c1)c1ccc2c(c1)OCO2 (racemic) [Example 14, TFA salt]

>  <TGT>
Human fibrinogen receptor (αIIbβ3) (Homo sapiens, UniProt P05106+P08514)

>  <OUTPUT UNIT>
µM

>  <VAL>
0.139

$$$$
>  <COMPOUND>
C#C[C@H](CC(=O)O)NC(=O)CNC(=O)c1c(F)c(F)cc(NC(=N)N)c1F [Example 35, trifluoroacetate salt]

>  <TGT>
Human fibrinogen receptor (αIIbβ3) (Homo sapiens, UniProt P05106+P08514)

>  <OUTPUT UNIT>
µM

>  <VAL>
0.00621

$$$$
>  <COMPOUND>
O=C(O)CC(NC(=O)CNC(=O)c1cccc(NC2=NCCCCC2)c1)c1ccccc1 (racemic) [Example 15, trifluoroacetate salt]

>  <TGT>
Human fibrinogen receptor (αIIbβ3) (Homo sapiens, UniProt P05106+P08514)

>  <OUTPUT UNIT>
µM

>  <VAL>
3.83

$$$$

Exercise: Give the measured IC50 of O=C(O)CC(NC(=O)CNC(=O)c1cccc(NC(=O)Nc2ccccc2)c1)c1cccnc1 (stereo not shown) [Example 108, trifluoroacetate salt] .
Solution: 4.87

Exercise: Another compound: CC1(C)CN=C(Nc2cccc(C(=O)NCC(=O)NC(CC(=O)O)c3cc(Cl)cc(Cl)c3)c2)NC1 (racemic) [Example 367, trifluoroacetate salt]
Solution: 1.54

Exercise: Would you mind doing C#C[C@@H](CC(=O)O)NC(=O)CNC(=O)c1cccc(NC(=N)N)c1 [Example 70, trifluoroacetate salt] as well?
Solution: 3.24

Exercise: Another compound to check: N=C(N)Nc1cccc(C(=O)NCC(=O)NC(CC(=O)O)c2cnc3ccccc3c2)c1 (stereo not shown)
Solution: 0.00189

Exercise: Same question for N=C(N)Nc1cccc(C(=O)NCC(=O)NC(CC(=O)O)c2cccc3ccccc23)c1 (racemic) [Example 41, trifluoroacetate salt] please.
Solution: 0.83

Exercise: Try C#C[C@H](CC(=O)OCC)NC(=O)CNC(=O)c1cccc(NC(=N)N)c1 [Example 58, trifluoroacetate salt] next.
Solution: 5.74

Exercise: How about this compound: N=C(N)Nc1cccc(C(=O)NCC(=O)NC(CC(=O)O)c2ccc3c(c2)OCCO3)c1 (stereo not shown) [Example 95, trifluoroacetate salt]
Solution: 0.0254

Exercise: Here is the next compound: N=C(N)Nc1cccc(C(=O)NCC(=O)NC(CC(=O)O)c2ccn[nH]2)c1 (stereo not shown) [Example 252, trifluoroacetate salt]
Solution: 0.213
